- Assayed target: UniProt:Q9GZV3
- Sequence (Q9GZV3 whole entry): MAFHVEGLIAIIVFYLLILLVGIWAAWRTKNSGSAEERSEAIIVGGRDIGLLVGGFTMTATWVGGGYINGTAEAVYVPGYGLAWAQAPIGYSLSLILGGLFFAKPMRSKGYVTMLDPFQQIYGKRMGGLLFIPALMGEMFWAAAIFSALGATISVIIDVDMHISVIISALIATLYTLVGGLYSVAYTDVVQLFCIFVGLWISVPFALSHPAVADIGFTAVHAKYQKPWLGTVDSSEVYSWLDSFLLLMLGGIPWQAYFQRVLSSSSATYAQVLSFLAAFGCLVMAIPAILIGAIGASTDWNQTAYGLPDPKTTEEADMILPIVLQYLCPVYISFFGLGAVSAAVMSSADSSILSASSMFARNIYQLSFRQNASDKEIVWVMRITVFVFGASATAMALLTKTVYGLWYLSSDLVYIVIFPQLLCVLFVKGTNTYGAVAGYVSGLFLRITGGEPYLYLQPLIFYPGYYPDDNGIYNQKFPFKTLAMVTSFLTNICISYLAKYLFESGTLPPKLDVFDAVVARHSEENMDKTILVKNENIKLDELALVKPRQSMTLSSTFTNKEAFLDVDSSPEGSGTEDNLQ
- Assay protocol: human choline transporter blockers, potency – cell-based, 5-point CRC, membrane potential dye, dose response (AID 504840)
- Assay type: functional
The source made the active and inactive calls.
Measurement label: IC50

>  <Compound>
O=C(NCCCn1ccnc1)c1cnn2c1NC(c1ccccc1)CC2C(F)(F)F (stereo not given)

>  <Assayed target>
UniProt:Q9GZV3

>  <Measurement label>
IC50

>  <Observed measurement>
8.15 µM (active)

$$$$
>  <Compound>
CCOC(=O)c1cccc(NC(=O)CCS(=O)(=O)c2cccc3nsnc23)c1

>  <Assayed target>
UniProt:Q9GZV3

>  <Measurement label>
IC50

>  <Observed measurement>
14.8 µM (active)

$$$$
>  <Compound>
CCCOc1ccc(C(CC(=O)O)NC(=O)CC(c2ccccc2)c2ccccc2)cc1 (stereo not given)

>  <Assayed target>
UniProt:Q9GZV3

>  <Measurement label>
IC50

>  <Observed measurement>
12 µM (active)

$$$$
>  <Compound>
O=S(=O)(Cc1cc(Cl)nc(-c2cccnc2)n1)c1ccccc1

>  <Assayed target>
UniProt:Q9GZV3

>  <Measurement label>
IC50

>  <Observed measurement>
10.5 µM (active)

$$$$
>  <Compound>
CCOC(=O)CC1(CC(=O)OCC)NC(=O)c2c(C)sc(C(=O)OCC)c2N1

>  <Assayed target>
UniProt:Q9GZV3

>  <Measurement label>
IC50

>  <Observed measurement>
13.8 µM (active)

$$$$

----------
- Assayed target: Fatty acid synthase (Homo sapiens, UniProt P49327)
- Sequence (P49327 whole entry): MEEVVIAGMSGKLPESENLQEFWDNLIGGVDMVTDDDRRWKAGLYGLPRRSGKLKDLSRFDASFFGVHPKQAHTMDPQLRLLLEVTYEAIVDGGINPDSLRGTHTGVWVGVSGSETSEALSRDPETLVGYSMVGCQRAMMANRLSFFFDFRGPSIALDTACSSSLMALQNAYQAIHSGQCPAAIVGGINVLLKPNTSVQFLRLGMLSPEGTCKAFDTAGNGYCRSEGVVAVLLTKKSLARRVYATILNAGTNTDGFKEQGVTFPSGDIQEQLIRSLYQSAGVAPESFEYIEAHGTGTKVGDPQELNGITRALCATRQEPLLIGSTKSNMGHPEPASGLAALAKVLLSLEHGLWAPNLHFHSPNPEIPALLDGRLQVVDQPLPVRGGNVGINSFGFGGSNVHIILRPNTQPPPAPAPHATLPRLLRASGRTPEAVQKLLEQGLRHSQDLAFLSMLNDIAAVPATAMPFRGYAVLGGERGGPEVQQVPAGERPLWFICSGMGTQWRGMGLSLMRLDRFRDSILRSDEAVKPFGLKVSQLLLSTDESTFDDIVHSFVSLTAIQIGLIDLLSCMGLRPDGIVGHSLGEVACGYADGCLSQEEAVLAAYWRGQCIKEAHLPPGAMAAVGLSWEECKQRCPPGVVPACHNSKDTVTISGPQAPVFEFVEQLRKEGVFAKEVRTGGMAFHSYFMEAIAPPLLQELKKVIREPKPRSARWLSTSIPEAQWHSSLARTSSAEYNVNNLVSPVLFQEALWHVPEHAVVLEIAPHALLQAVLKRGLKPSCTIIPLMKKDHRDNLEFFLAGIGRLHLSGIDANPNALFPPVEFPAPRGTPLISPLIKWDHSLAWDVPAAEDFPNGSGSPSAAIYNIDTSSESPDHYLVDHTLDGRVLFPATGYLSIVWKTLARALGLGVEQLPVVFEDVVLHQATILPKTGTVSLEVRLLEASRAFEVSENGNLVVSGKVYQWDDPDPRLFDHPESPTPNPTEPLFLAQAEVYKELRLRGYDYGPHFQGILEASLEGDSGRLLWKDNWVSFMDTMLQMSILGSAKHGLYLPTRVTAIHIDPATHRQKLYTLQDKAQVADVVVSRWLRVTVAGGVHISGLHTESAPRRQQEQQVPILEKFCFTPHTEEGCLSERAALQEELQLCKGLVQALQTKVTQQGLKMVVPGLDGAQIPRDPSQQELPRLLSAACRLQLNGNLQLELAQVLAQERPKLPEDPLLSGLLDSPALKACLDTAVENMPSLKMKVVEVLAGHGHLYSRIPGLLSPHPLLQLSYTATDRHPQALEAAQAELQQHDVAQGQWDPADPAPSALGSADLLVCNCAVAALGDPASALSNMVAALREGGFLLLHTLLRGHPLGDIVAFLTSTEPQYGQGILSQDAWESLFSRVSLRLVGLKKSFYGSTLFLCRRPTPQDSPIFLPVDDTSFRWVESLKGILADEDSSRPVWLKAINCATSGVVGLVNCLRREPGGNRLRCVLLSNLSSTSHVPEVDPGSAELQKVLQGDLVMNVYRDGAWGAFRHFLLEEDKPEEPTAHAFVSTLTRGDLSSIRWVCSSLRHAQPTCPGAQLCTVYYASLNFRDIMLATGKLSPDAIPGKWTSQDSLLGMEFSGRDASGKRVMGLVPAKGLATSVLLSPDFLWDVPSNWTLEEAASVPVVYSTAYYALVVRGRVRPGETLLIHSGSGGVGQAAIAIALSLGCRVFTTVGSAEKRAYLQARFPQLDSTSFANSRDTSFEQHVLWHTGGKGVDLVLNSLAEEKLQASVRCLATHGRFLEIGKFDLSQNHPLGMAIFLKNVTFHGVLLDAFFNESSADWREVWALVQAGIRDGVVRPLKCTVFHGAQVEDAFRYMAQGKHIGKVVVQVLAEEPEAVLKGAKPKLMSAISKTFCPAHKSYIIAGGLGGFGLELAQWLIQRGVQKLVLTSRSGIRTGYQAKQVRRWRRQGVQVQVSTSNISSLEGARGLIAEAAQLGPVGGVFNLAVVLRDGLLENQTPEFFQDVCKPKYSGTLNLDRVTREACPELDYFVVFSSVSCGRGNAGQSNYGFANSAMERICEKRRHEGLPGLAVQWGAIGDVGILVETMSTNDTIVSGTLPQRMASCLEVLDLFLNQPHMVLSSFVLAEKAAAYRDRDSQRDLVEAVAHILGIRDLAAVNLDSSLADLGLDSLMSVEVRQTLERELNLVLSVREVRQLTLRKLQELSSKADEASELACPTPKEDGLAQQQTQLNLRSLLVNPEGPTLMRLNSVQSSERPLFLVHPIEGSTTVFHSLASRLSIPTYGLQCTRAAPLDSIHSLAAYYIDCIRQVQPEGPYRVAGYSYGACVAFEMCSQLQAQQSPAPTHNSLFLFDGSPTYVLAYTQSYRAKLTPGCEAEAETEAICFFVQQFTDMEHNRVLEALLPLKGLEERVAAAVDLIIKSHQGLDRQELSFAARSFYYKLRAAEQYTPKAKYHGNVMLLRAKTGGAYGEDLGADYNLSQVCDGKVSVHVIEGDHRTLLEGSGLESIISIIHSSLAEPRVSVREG
- Assay protocol: inhibition of human FAS-TE enzyme activity – biochemical, endpoint fluorescence intensity, uHTS hits, dose response (AID 624327);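 note: fluorescence from hydrolysis of an O-methyl fluorescein acyl ester substrate by the enzyme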
- Assay type: functional
The source made the active and inactive calls.

>  <Compound>
COc1ccc([N+](=O)[O-])cc1NC(=O)CCC(=O)c1cccs1

>  <Assayed target>
Fatty acid synthase (Homo sapiens, UniProt P49327)

>  <IC50>
9.16 µM (active)

$$$$
>  <Compound>
COC(=O)c1ccc(CSc2nc(C(F)F)cc(C)c2C#N)o1

>  <Assayed target>
Fatty acid synthase (Homo sapiens, UniProt P49327)

>  <IC50>
17.2 µM (active)

$$$$
>  <Compound>
CC1=C(C(=O)OCC(Br)(Br)Br)C(c2cccc([N+](=O)[O-])c2)NC(=O)N1CCCC(=O)O (stereo not given)

>  <Assayed target>
Fatty acid synthase (Homo sapiens, UniProt P49327)

>  <IC50>
7.69 µM (active)

$$$$
>  <Compound>
CCOC(=O)CC(NC(=O)c1cc2ccccc2oc1=O)c1cccc([N+](=O)[O-])c1 (stereo not given)

>  <Assayed target>
Fatty acid synthase (Homo sapiens, UniProt P49327)

>  <IC50>
16.7 µM (active)

$$$$
>  <Compound>
O=[N+]([O-])c1ccc(S(=O)(=O)NN=Cc2ccc3c(c2)OCO3)cc1

>  <Assayed target>
Fatty acid synthase (Homo sapiens, UniProt P49327)

>  <IC50>
5.4 µM (active)

$$$$
